System: NCI-H1944
PROTOCOL DESCRIPTION: relative viability (nuclei count vs DMSO), 5 days (fraction); higher = more cells survive
CONDITION LABEL: first compound 0.01581 µM

COMPOUND: Nc1ccn([C@@H]2O[C@H](CO)[C@@H](O)[C@@H]2O)c(=O)n1 [Cytarabine] + CCNC(=O)c1noc(-c2cc(C(C)C)c(O)cc2O)c1-c1ccc(CN2CCOCC2)cc1 [Luminespib] (partner 0.01 µM)
relative viability: 0.343
//
COMPOUND: Nc1ccn([C@@H]2O[C@H](CO)[C@@H](O)[C@@H]2O)c(=O)n1 [Cytarabine] + Nc1ncn([C@H]2C[C@H](O)[C@@H](CO)O2)c(=O)n1 [Decitabine] (partner 2 µM)
relative viability: 0.347
//
COMPOUND: Nc1ccn([C@@H]2O[C@H](CO)[C@@H](O)[C@@H]2O)c(=O)n1 [Cytarabine] + Cc1nc(Nc2ncc(C(=O)Nc3c(C)cccc3Cl)s2)cc(N2CCN(CCO)CC2)n1 [Dasatinib] (partner 0.075 µM)
relative viability: 0.123
//
COMPOUND: COc1cc2nccc(Oc3ccc(NC(=O)Nc4cc(C)on4)c(Cl)c3)c2cc1OC [Tivozanib] + CC1(C)CCC(c2ccc(Cl)cc2)=C(CN2CCN(c3ccc(C(=O)NS(=O)(=O)c4ccc(N[C@H](CCN5CCOCC5)CSc5ccccc5)c(S(=O)(=O)C(F)(F)F)c4)cc3)CC2)C1 [Navitoclax] (partner 0.5 µM)
relative viability: 1.02
//
COMPOUND: COc1cc2nccc(Oc3ccc(NC(=O)Nc4cc(C)on4)c(Cl)c3)c2cc1OC [Tivozanib] + CS(=O)(=O)CCNCc1ccc(-c2ccc3ncnc(Nc4ccc(OCc5cccc(F)c5)c(Cl)c4)c3c2)o1 [Lapatinib] (partner 2 µM)
relative viability: 0.888
//
COMPOUND: Nc1ccn([C@@H]2O[C@H](CO)[C@@H](O)[C@@H]2O)c(=O)n1 [Cytarabine] + Cc1cc(Nc2cc(N3CCN(C)CC3)nc(Sc3ccc(NC(=O)C4CC4)cc3)n2)n[nH]1 [Tozasertib] (partner 0.1 µM)
relative viability: 0.195
//
COMPOUND: Nc1ccn([C@@H]2O[C@H](CO)[C@@H](O)[C@@H]2O)c(=O)n1 [Cytarabine] + CC1(C)CCC(c2ccc(Cl)cc2)=C(CN2CCN(c3ccc(C(=O)NS(=O)(=O)c4ccc(N[C@H](CCN5CCOCC5)CSc5ccccc5)c(S(=O)(=O)C(F)(F)F)c4)cc3)CC2)C1 [Navitoclax] (partner 0.5 µM)
relative viability: 0.363
//
COMPOUND: Nc1ccn([C@@H]2O[C@H](CO)[C@@H](O)[C@@H]2O)c(=O)n1 [Cytarabine] + O=C(CCCCCCC(=O)Nc1ccccc1)NO [Vorinostat] (partner 1 µM)
relative viability: 0.326
//
COMPOUND: COc1cc2nccc(Oc3ccc(NC(=O)Nc4cc(C)on4)c(Cl)c3)c2cc1OC [Tivozanib] + COc1cccc2cc(-c3nc([C@H]4CC[C@H](C(=O)O)CC4)n4ncnc(N)c34)[nH]c12 [OSI-027] (partner 0.5 µM)
relative viability: 0.431
//
COMPOUND: COc1cc2nccc(Oc3ccc(NC(=O)Nc4cc(C)on4)c(Cl)c3)c2cc1OC [Tivozanib] + Nc1ncn([C@H]2C[C@H](O)[C@@H](CO)O2)c(=O)n1 [Decitabine] (partner 2 µM)
relative viability: 0.473
//
COMPOUND: Nc1ccn([C@@H]2O[C@H](CO)[C@@H](O)[C@@H]2O)c(=O)n1 [Cytarabine] + Cc1nc(NC(=O)N2CCC[C@H]2C(N)=O)sc1-c1ccnc(C(C)(C)C(F)(F)F)c1 [Alpelisib] (partner 2 µM)
relative viability: 0.361
//
COMPOUND: COc1cc2nccc(Oc3ccc(NC(=O)Nc4cc(C)on4)c(Cl)c3)c2cc1OC [Tivozanib] + Cc1cc(Nc2cc(N3CCN(C)CC3)nc(Sc3ccc(NC(=O)C4CC4)cc3)n2)n[nH]1 [Tozasertib] (partner 0.1 µM)
relative viability: 0.245
//
COMPOUND: COc1cc2nccc(Oc3ccc(NC(=O)Nc4cc(C)on4)c(Cl)c3)c2cc1OC [Tivozanib] + NC(=O)Nc1cc(-c2cccc(F)c2)sc1C(=O)N[C@H]1CCCNC1 [AZD7762] (partner 0.2 µM)
relative viability: 0.552
//
COMPOUND: COc1cc2nccc(Oc3ccc(NC(=O)Nc4cc(C)on4)c(Cl)c3)c2cc1OC [Tivozanib] + CC(=O)c1c(C)c2cnc(Nc3ccc(N4CCNCC4)cn3)nc2n(C2CCCC2)c1=O [Palbociclib] (partner 0.5 µM)
relative viability: 0.365
//
COMPOUND: Nc1ccn([C@@H]2O[C@H](CO)[C@@H](O)[C@@H]2O)c(=O)n1 [Cytarabine] + Nc1nc2[nH]cc(CCc3ccc(C(=O)N[C@@H](CCC(=O)O)C(=O)O)cc3)c2c(=O)[nH]1 [Pemetrexed] (partner 0.2 µM)
relative viability: 0.312

====

System: NCI-H1915
PROTOCOL DESCRIPTION: relative viability (nuclei count vs DMSO), 5 days (fraction); higher = more cells survive
CONDITION LABEL: first compound 0.002 µM
The entries below come with measured relative viability values attached.

MOLECULE: CC(=O)O[C@@]12CO[C@@H]1C[C@H](O)[C@@]1(C)C(=O)[C@H](O)C3=C(C)[C@@H](OC(=O)[C@H](O)[C@@H](NC(=O)OC(C)(C)C)c4ccccc4)C[C@@](O)([C@@H](OC(=O)c4ccccc4)[C@H]21)C3(C)C [Docetaxel] + N=C(N)NC(=N)NCCc1ccccc1 [Phenformin] (partner 250 µM)
ASSAY SYSTEM: NCI-H1915
relative viability: 0.21

MOLECULE: CC(=O)O[C@@]12CO[C@@H]1C[C@H](O)[C@@]1(C)C(=O)[C@H](O)C3=C(C)[C@@H](OC(=O)[C@H](O)[C@@H](NC(=O)OC(C)(C)C)c4ccccc4)C[C@@](O)([C@@H](OC(=O)c4ccccc4)[C@H]21)C3(C)C [Docetaxel] + Nc1nc2[nH]cc(CCc3ccc(C(=O)N[C@@H](CCC(=O)O)C(=O)O)cc3)c2c(=O)[nH]1 [Pemetrexed] (partner 0.2 µM)
ASSAY SYSTEM: NCI-H1915
relative viability: 0.327

MOLECULE: CC(=O)O[C@@]12CO[C@@H]1C[C@H](O)[C@@]1(C)C(=O)[C@H](O)C3=C(C)[C@@H](OC(=O)[C@H](O)[C@@H](NC(=O)OC(C)(C)C)c4ccccc4)C[C@@](O)([C@@H](OC(=O)c4ccccc4)[C@H]21)C3(C)C [Docetaxel] + CC(=O)Nc1cccc(-n2c(=O)n(C3CC3)c(=O)c3c(Nc4ccc(I)cc4F)n(C)c(=O)c(C)c32)c1 [Trametinib] (partner 0.02 µM)
ASSAY SYSTEM: NCI-H1915
relative viability: 0.228

====

Tested on: LXF-289
PROTOCOL DESCRIPTION: relative viability (nuclei count vs DMSO), 5 days (fraction); higher = more cells survive
CONDITION LABEL: first compound 0.05 µM
The entries below come with measured relative viability values attached.

COMPOUND: Nc1ccn([C@@H]2O[C@H](CO)[C@@H](O)[C@@H]2O)c(=O)n1 [Cytarabine] + O=C(CCCCCCC(=O)Nc1ccccc1)NO [Vorinostat] (partner 1 µM)
relative viability: 0.639
//
COMPOUND: COc1cc2nccc(Oc3ccc(NC(=O)Nc4cc(C)on4)c(Cl)c3)c2cc1OC [Tivozanib] + COc1cc2c(Oc3ccc(NC(=O)C4(C(=O)Nc5ccc(F)cc5)CC4)cc3F)ccnc2cc1OCCCN1CCOCC1 [Foretinib] (partner 0.25 µM)
relative viability: 0.999
//
COMPOUND: Nc1ccn([C@@H]2O[C@H](CO)[C@@H](O)[C@@H]2O)c(=O)n1 [Cytarabine] + Cc1nc(NC(=O)N2CCC[C@H]2C(N)=O)sc1-c1ccnc(C(C)(C)C(F)(F)F)c1 [Alpelisib] (partner 2 µM)
relative viability: 0.764
//
COMPOUND: COc1cc2nccc(Oc3ccc(NC(=O)Nc4cc(C)on4)c(Cl)c3)c2cc1OC [Tivozanib] + Nc1nc2[nH]cc(CCc3ccc(C(=O)N[C@@H](CCC(=O)O)C(=O)O)cc3)c2c(=O)[nH]1 [Pemetrexed] (partner 0.2 µM)
relative viability: 0.929

====

System: NCI-H650
PROTOCOL DESCRIPTION: relative viability (nuclei count vs DMSO), 5 days (fraction); higher = more cells survive
CONDITION LABEL: first compound 0.253 µM
Grouping rule (relative viability): interval 1 = under 0.7, interval 2 = from 0.7 up to 0.9, interval 3 = 0.9 and over

COMPOUND: O=c1[nH]c2ccccc2n1C1CCN(CCCC(c2ccc(F)cc2)c2ccc(F)cc2)CC1 [Pimozide] + COc1cc2c(Oc3ccc(NC(=O)C4(C(=O)Nc5ccc(F)cc5)CC4)cc3F)ccnc2cc1OCCCN1CCOCC1 [Foretinib] (partner 0.25 µM)
ASSAY SYSTEM: NCI-H650
CATEGORY: interval 3
--
COMPOUND: O=c1[nH]c2ccccc2n1C1CCN(CCCC(c2ccc(F)cc2)c2ccc(F)cc2)CC1 [Pimozide] + C[C@]1(O)C[C@@H](c2nc(-c3ccc4ccc(-c5ccccc5)nc4c3)c3c(N)nccn32)C1 [Linsitinib] (partner 1 µM)
ASSAY SYSTEM: NCI-H650
CATEGORY: interval 2
--
COMPOUND: Cc1cnc(-c2cnc(NCCNc3ccc(C#N)cn3)nc2-c2ccc(Cl)cc2Cl)[nH]1 + C[C@@H](Oc1cc(-c2cnn(C3CCNCC3)c2)cnc1N)c1c(Cl)ccc(F)c1Cl [Crizotinib] (partner 1 µM)
ASSAY SYSTEM: NCI-H650
CATEGORY: interval 1
--
COMPOUND: O=c1[nH]c2ccccc2n1C1CCN(CCCC(c2ccc(F)cc2)c2ccc(F)cc2)CC1 [Pimozide] + N=C(N)NC(=N)NCCc1ccccc1 [Phenformin] (partner 250 µM)
ASSAY SYSTEM: NCI-H650
CATEGORY: interval 1
--
COMPOUND: O=c1[nH]c2ccccc2n1C1CCN(CCCC(c2ccc(F)cc2)c2ccc(F)cc2)CC1 [Pimozide] + CCNC(=O)c1noc(-c2cc(C(C)C)c(O)cc2O)c1-c1ccc(CN2CCOCC2)cc1 [Luminespib] (partner 0.01 µM)
ASSAY SYSTEM: NCI-H650
CATEGORY: interval 2
--
COMPOUND: O=c1[nH]c2ccccc2n1C1CCN(CCCC(c2ccc(F)cc2)c2ccc(F)cc2)CC1 [Pimozide] + CC(=O)Nc1cccc(-n2c(=O)n(C3CC3)c(=O)c3c(Nc4ccc(I)cc4F)n(C)c(=O)c(C)c32)c1 [Trametinib] (partner 0.02 µM)
ASSAY SYSTEM: NCI-H650
CATEGORY: interval 3
--
COMPOUND: Cc1cnc(-c2cnc(NCCNc3ccc(C#N)cn3)nc2-c2ccc(Cl)cc2Cl)[nH]1 + Cc1nc(NC(=O)N2CCC[C@H]2C(N)=O)sc1-c1ccnc(C(C)(C)C(F)(F)F)c1 [Alpelisib] (partner 2 µM)
ASSAY SYSTEM: NCI-H650
CATEGORY: interval 3
--
COMPOUND: Cc1cnc(-c2cnc(NCCNc3ccc(C#N)cn3)nc2-c2ccc(Cl)cc2Cl)[nH]1 + Cc1cc(Nc2cc(N3CCN(C)CC3)nc(Sc3ccc(NC(=O)C4CC4)cc3)n2)n[nH]1 [Tozasertib] (partner 0.1 µM)
ASSAY SYSTEM: NCI-H650
CATEGORY: interval 2
--
COMPOUND: O=c1[nH]c2ccccc2n1C1CCN(CCCC(c2ccc(F)cc2)c2ccc(F)cc2)CC1 [Pimozide] + CS(=O)(=O)CCNCc1ccc(-c2ccc3ncnc(Nc4ccc(OCc5cccc(F)c5)c(Cl)c4)c3c2)o1 [Lapatinib] (partner 2 µM)
ASSAY SYSTEM: NCI-H650
CATEGORY: interval 2
--
COMPOUND: O=c1[nH]c2ccccc2n1C1CCN(CCCC(c2ccc(F)cc2)c2ccc(F)cc2)CC1 [Pimozide] + Cc1nc(Nc2ncc(C(=O)Nc3c(C)cccc3Cl)s2)cc(N2CCN(CCO)CC2)n1 [Dasatinib] (partner 0.075 µM)
ASSAY SYSTEM: NCI-H650
CATEGORY: interval 1
